Target: T1, Recombinant MBP-mutCALR Type 1 fusion protein (human)
T1 construct: custom made at Cepter; also called recombinant mutCALR protein
Assay: SPR, IgG captured, 1:1 fit, Exp. 2
# kon annotations

{"binder": "anti-mutCALR antibody clone 172 (antibody, human IgG1, lambda, N297A, V domains shown, human IgG1 N297A variant of clone 17) VH: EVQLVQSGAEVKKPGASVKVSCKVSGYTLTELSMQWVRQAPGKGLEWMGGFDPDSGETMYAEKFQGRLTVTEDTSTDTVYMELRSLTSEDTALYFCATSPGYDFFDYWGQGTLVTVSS VL: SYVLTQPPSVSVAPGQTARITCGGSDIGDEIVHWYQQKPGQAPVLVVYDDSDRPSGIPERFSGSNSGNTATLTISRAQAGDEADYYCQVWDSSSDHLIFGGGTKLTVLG", "unit.of.measurement": "M⁻¹ s⁻¹", "kon": "1.12e+06"}
{"binder": "anti-mutCALR antibody clone 73 (antibody, human IgG1, lambda, N297A, V domains shown, human IgG1 N297A variant of clone 6) VH: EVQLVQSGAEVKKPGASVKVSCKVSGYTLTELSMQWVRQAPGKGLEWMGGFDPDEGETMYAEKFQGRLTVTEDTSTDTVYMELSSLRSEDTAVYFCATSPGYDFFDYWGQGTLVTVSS VL: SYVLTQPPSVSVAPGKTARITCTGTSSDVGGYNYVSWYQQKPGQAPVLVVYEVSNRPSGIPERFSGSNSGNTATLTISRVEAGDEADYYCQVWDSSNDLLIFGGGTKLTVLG", "unit.of.measurement": "M⁻¹ s⁻¹", "kon": "7.18e+06"}
{"binder": "anti-mutCALR antibody clone 32 (antibody, human IgG1, lambda, V domains shown, human IgG1) VH: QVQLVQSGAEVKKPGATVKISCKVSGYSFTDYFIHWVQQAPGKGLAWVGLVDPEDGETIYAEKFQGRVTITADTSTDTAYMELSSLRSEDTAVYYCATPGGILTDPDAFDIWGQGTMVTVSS VL: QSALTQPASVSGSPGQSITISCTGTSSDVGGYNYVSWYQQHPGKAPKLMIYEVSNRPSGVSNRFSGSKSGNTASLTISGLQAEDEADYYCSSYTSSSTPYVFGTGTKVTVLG", "unit.of.measurement": "M⁻¹ s⁻¹", "kon": "1.84e+06"}
